Origin of values: patent US20220089698A1

Molecular target: BSA (UniProt P02769)
Test: single-point ELISA
assay endpoint: ELISA (A450)
API: value field is a number in A450; no unit string.

The measured ELISA (A450) associated with 1.32.35-1 (antibody, human IgG1, kappa, V domains shown) VH: QVQLVQSGAEVTKPGASVRVSCEASGYNIRDYFIHWWRQAPGQGLQWVGWINPKTGQPNNPRQFQGRVSLTRHASWDFDTFSFYMDLKALRSDDTAVYFCARQRTDYWDFDVWGSGTQVTVSS VL: DIQMTQSPSSLSASVGDRVTITCQANGYLNWYQQKPGKAPKLLIYDGSNLETGVPSRFSGSRWGQEYTLTISSLQPEDIATYFCQVYEFVGPGTNLDIKR reads 0.06

The measured ELISA (A450) associated with 1.12.17-1 (antibody, human IgG1, kappa, V domains shown) VH: QVQLLQSGAAVTKPGASVRVSCEASGYNIRDYFIHWVRQAPGQGLQWVGWINPKTGQPNNPRQFQGRVSLTRHASWDFDTFSFYMDLKALRSDDTAVYFCARQRSDYWDFDVWGSGTQVTVSS VL: DIQMTQSPSSLSASVGDTVTITCQANGYLNWYQQRRGKAPKLLIYDGSKLERGVPSRFSGRRWGQEYNLTINNLQPEDIATYFCQVYEFFGPGTRLDLKR reads 0.06

The measured ELISA (A450) associated with 1.35.35-1 (antibody, human IgG1, kappa, V domains shown) VH: QVQLVQSGAEVKKPGASVRVSCKASGYNIRDYFMHWWRQAPGQGLQWVGWINPKTGQPNNPRQFQGRVTMTRHASWDFDTFSFYMDLSRLRSDDTATYFCARQRTDYWDFDVWGQGTMVTVSS VL: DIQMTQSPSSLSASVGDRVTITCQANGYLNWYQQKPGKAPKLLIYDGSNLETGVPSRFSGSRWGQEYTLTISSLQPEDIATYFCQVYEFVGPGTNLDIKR reads 0.06

The measured ELISA (A450) associated with 1.33.35-1 (antibody, human IgG1, kappa, V domains shown) VH: QVQLVQSGAEVKKPGASVRVSCKASGYNIRDYFIHWWRQAPGQGLQWVGWINPKTGQPNNPRQFQGRVTLTRHASWDFDTFSFYMDLKALRSDDTATYFCARQRSDYWDFDVWGSGTQVTVSS VL: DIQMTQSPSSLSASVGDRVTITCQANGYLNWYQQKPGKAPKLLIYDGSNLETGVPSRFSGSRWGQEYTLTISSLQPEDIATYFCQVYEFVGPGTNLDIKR reads 0.07

The measured ELISA (A450) associated with 1.31.35-1 (antibody, human IgG1, kappa, V domains shown) VH: QVQLVQSGAEVTKPGASVRVSCEASGYNIRDYFIHWWRQAPGQGLQWVGWINPKTGQPNNPRQFQGRVSLTRHASWDFDTFSFYMDLKALRSDDTATYFCARQRSDYWDFDVWGSGTQVTVSS VL: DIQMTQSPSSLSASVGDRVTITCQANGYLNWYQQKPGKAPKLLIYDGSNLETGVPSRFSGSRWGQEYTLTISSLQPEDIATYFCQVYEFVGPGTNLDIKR reads 0.06
